Test system: tubulin
protocol_description: Tubulin polymerization assay (Cytoskeleton, Inc. inhibitor screening protocol)
Assay type: biochemical
experimental_parameters: 3 μM, 37C, compared to DMSO control
observable: % Tubulin Polymerization at 60 min

Below are worked cases with known answers.
Cc1ccc(C(=O)NCCCc2ccc(-c3ccc4c(cnn4C)c3)cc2)cn1; C (C is 41-60%)
O=C(CCCc1ccc(-c2ccc3cnccc3c2)cc1)Nc1cccnc1; F (F is 81-100%)
COc1ccc(CC(=O)NCCCc2ccc(-c3ccccc3F)cc2)cc1; C (C is 41-60%)
Cc1cc(C(=O)NCCCc2ccc(-c3ccc4ncccc4c3)cc2)no1; C (C is 41-60%)
CC[C@]1(O)C[C@@H]2CN(CCc3c([nH]c4ccccc34)[C@@](C(=O)OC)(c3cc4c(cc3OC)N(C)[C@H]3[C@@](O)(C(=O)OC)[C@H](OC(C)=O)[C@]5(CC)C=CCN6CC[C@]43[C@@H]65)C2)C1 [Vinblastine, vinblastine, reference compound]; A (A is < 20%)
Cc1ncc(C(=O)NCCCc2ccc(-c3ccccc3F)cc2)s1; A (A is < 20%)
Cc1cc(C(=O)NCCCc2ccc(-c3cnc4[nH]ccc4c3)cc2)n(C)n1; A (A is < 20%)
Cc1ncccc1C(=O)NCCCc1ccc(-c2ccccc2F)cc1; A (A is < 20%)

For tubulin, provide % Tubulin Polymerization at 60 min of Cc1ccc(C(=O)NCCCc2ccc(-c3ccc4[nH]ncc4c3C)cc2)cn1 please.
A (A is < 20%)

For tubulin, provide % Tubulin Polymerization at 60 min of Cn1ncc2cc(-c3ccc(CCCNC(=O)c4cnc(N)nc4)cc3)ccc21 please.
C (C is 41-60%)

For tubulin, provide % Tubulin Polymerization at 60 min of O=C(Nc1ccc2[nH]ccc2c1)N1CCN(c2ccc(-c3ccccc3F)cc2)CC1 please.
F (F is 81-100%)
